- Test target: T1, His-nNOS[1–155] (human, UniProt P29475-1 1-155)
- T1 construct: Two batches were used
- Assay summary: fluorescence polarisation; competition FP: 1 μM F-GDLV, 4 μM His-nNOS(1–155), increasing competitor; approximate Kc (dissociation constant of the competitor, affinity for the nNOS PDZ pocket) from the single-site competition formula
- Reported conditions: both partners purified
pKi: −log10 of the molar value.
pKi reference
Experimental readout: pKi

[[record]]
binder = "H-DSLDDEIAV-OH (last 9 amino acids of rat/mouse NOS1AP; also called NOS1AP-9C; DSLDDEIAV (NOS1AP-9C); source: synthetic peptide, synthesized by Xigen AG (Lausanne, Switzerland)) [Peptide EIAV (NH2-DSLDDEIAV-COOH)]"
experimental_readout = "pKi"
reported_result = "< 3.52"

[[record]]
binder = "NOS1AP[400–506] F431A cleaved from GST (domain or fragment, human, UniProt O75052 400-506, looked up) HSPPLGAGLADFAHPAGSPLGRRDCLVKLECARFLPPEDTPPPAQGEALLGGLELIKFRESGIASEYESNTDESEERDSWSQEELPRLLNVLQRQELGDGLDDEIAV"
experimental_readout = "pKi"
reported_result = "< 5.00"

[[record]]
binder = "NOS1AP[432–506] cleaved from GST (domain or fragment, human, UniProt O75052 432-506, looked up) RFLPPEDTPPPAQGEALLGGLELIKFRESGIASEYESNTDESEERDSWSQEELPRLLNVLQRQELGDGLDDEIAV"
experimental_readout = "pKi"
reported_result = "< 5.00"

[[record]]
binder = "H-RRRRWGDLV-OH (also called unlabelled GDLV; source: synthetic peptide, bought: Genic Bio (Shanghai, China)) [Peptide GDLV (NH2-RRRRWGDLV-COOH)]"
experimental_readout = "pKi"
reported_result = 4.97

